tested on: Trichophyton mentagrophytes
property.measured: MIC (µg/mL)

# example entries with known answers
compound="CC(C)(C)C(O)C(Cn1ccnc1)Oc1ccccc1Cl (stereo not drawn)" property_measured=MIC units_text=µg/mL number=32
compound="Cc1cc(Cl)ccc1OC(Cn1ccnc1)C(O)C(C)(C)C (stereo not drawn)" property_measured=MIC units_text=µg/mL number=4
compound="CC(C)(C)C(O)C(Cn1ccnc1)Oc1ccc(Cl)cc1Cl (stereo not drawn)" property_measured=MIC units_text=µg/mL number=4
compound="CC(C)(C)C(O)C(Cn1ccnc1)Oc1ccc(F)cc1 (stereo not drawn)" property_measured=MIC units_text=µg/mL number=64
compound="CC(C)(C)C(O)C(Cn1ccnc1)Oc1ccc(Cl)cc1 (stereo not drawn)" property_measured=MIC units_text=µg/mL number=32

[1] CC(C)(C)C(C)(O)C(Cn1ccnc1)Oc1ccc(Cl)cc1 (stereo not drawn)
[2] CC(C)(C)C(O)C(Cn1ccnc1)Oc1ccccc1 (stereo not drawn)
Data request: Field: entry with larger MIC (options 1 / 2 ). Please reply using the label of the selected record.
Data returned: 2
(2: 32 µg/mL, 1: 8 µg/mL)
